The following compounds are listed with their measured composite z-score values.
# System: Chordin-like protein 2 (CHRDL2)
# protocol summary: compounds binding chordin-like 2 – biochemical, small-molecule microarray, 635 nm fluorescence, primary screen (AID 1126);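 further: printed compound slides probed with Chrdl2 protein at 4 µg/mL for 1 h at 4 C; score merges 667 nm emission intensity with signal to noise over three replicate slides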
# applied conditions: fluorescence 635 nm, higher = more signal
// no unit string in output, number only

CC1CC/C=C\[C@H]2OC34C=CCN(C(C)(C)C)C(=O)[C@H]3N(CCCCCO)C(=O)[C@@H]4C2C(=O)O1 (stereo partly drawn)	-1.34
COCCOC(=O)N1C(=O)[C@@]2(c3cc(C#CC4(O)CCCCCC4)ccc31)[C@H](C(=O)Nc1nc3ccccc3s1)[C@H]1C(=O)O[C@H](c3ccccc3)[C@H](c3ccccc3)N1[C@@H]2c1ccc(O)cc1	0.626
O=C1[C@H]2C=C(I)[C@H](C[C@@H]2OCCOCCO)[C@@]12CO2	0.466
COC(=O)C1(CC(C)C)C=C2C(=C(c3ccccc3)C(=O)C2C)CN1 (stereo not drawn)	-0.521
CC(C)NC(=O)[C@@]1(C)c2ccccc2C(=O)N(Cc2ccc(OC(F)(F)F)cc2)[C@H]1c1ccc(CO)cc1	-1.02

Q: Tell me the measured composite z-score of `C=CC[C@H](OC(=O)Nc1ccc(SC)cc1)c1ccc(O)c2ccccc12` , please.
Result: 0.975

Q: Query (compound): `CCCCC(=C=CC[C@H](O)c1ccc(OCCO)cc1)CCO` ; field requested: composite z-score
Result: -1.13

Q: Would you mind telling me what composite z-score value was observed for `COc1ccc([Si](C)(C)[C@@H]2[C@@H](CCO)O[C@]3(C(=O)N(Cc4ccccc4)c4ccc(NC(=O)[C@H](C)O)cc43)[C@H]2C)cc1` ?
Result: 0.448

###

# test system: Fibroblast growth factor 10 (Homo sapiens)
# protocol summary: compounds binding fibroblast growth factor 10 – biochemical, small-molecule microarray, 635 nm fluorescence, primary screen (AID 1102)
# applied conditions: FGF10 binding, fluorescence 635 nm, higher = more signal
Let's look at some molecules and their measured composite z-score.
Response field accepts a number only; no unit should be typed.

CCCC=C(CCC)[C@@H](NS(=O)(=O)c1ccc(C(F)(F)F)cc1)c1ccccc1	0.0772
COCC(=C=CC[C@H](O)c1ccc(CO)o1)CCO	1.52
CC(C)N1C(=O)C[C@@](C(=O)NC2CC2)(c2ccc([N+](=O)[O-])cc2)[C@H]1c1ccc(CO)cc1	-0.576

Q: Query: composite z-score; subject: `COCCCNC(=O)[C@@]1(Sc2ccc(C)cc2)CC(=O)N(C2Cc3ccccc3C2)[C@@H]1c1ccc(CO)cc1`
Result: -1.39

Q: // query composite z-score value for entry `O=C(c1ccccc1)N1C(=O)[C@]2(Cc3ccccc31)N=C(c1ccc(OCCCO)cc1)O[C@@H]2c1ccccc1`
Result: 1.42

Q: composite z-score for `CC(C)(C)OC(=O)COc1cccc(C(=O)CCN2CCOCC2)c1` ?
Result: -0.189

Q: For the molecule shown here, COC(=O)C1=CC(CCCO)=CC(c2ccc(CN3CCCC3)cc2)N(Cc2cccc(OC(F)(F)F)c2)C=C1C(=O)OC (centres undefined) , give the reported composite z-score.
Result: 0.641

Q: # composite z-score lookup, item `CC[C@@H]1C=C(C(=O)O)[C@H](c2ccc(C#N)cc2)N1S(=O)(=O)c1ccc(C)cc1`
Result: 0.396

Q: Which measured composite z-score value corresponds to `O=C1C[C@]2(c3ccc([N+](=O)[O-])cc3)C(=O)N(C3CC3)c3cc(CO)ccc3[C@H]2N1CC12CC3CC(CC(C3)C1)C2` ?
Result: -0.511
